viability, T/C for assorted compounds
Tested on: 996289-038-R-J1-PDC spheroid viability;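 further: luminescence used as a proxy for viable cell amount; spheroids exposed to compounds for seven days before viability read; percent viability relative to DMSO vehicle control as 100%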
ASSAY EXPLANATION: Anticancer human tumor 996289-038-R-J1-PDC patient-derived colon adenocarcinoma cell line growth inhibition [PI3K]
STATED CONDITIONS: second compound 0.316 µM; first compound 0.1 µM; hits give low values; spheroids with HUVEC and MSC
MEASUREMENT NAME: viability, T/C (%)

- COMPOUND: "CC(C)n1nc(-c2ccc3oc(N)nc3c2)c2c(N)ncnc21 + COc1c(OCCCN2CCOCC2)ccc2c3n(c(=NC(=O)c4cnc(N)nc4)nc12)CCN3"
  MEASUREMENT NAME: "viability, T/C"
  RESULT NUMBER: 10.9
- COMPOUND: "C#Cc1c(F)ccc2cc(O)cc(-c3ncc4c(N5CC6CCC(C5)N6)nc(OCC56CCCN5CC(F)C6)nc4c3F)c12 (stereo not given) + COc1c(OCCCN2CCOCC2)ccc2c3n(c(=NC(=O)c4cnc(N)nc4)nc12)CCN3"
  MEASUREMENT NAME: "viability, T/C"
  RESULT NUMBER: 27.9
- COMPOUND: "C[C@@H](NC(=O)c1ncnc(N)c1Cl)c1ncc(C(=O)Nc2cc(C(F)(F)F)c(Cl)cn2)s1 + Cc1nc(NC(=O)N2CCCC2C(N)=O)sc1-c1ccnc(C(C)(C)C(F)(F)F)c1"
  MEASUREMENT NAME: "viability, T/C"
  RESULT NUMBER: 88.6
- COMPOUND: "CC(C)NCC(C(=O)N1CCN(c2ncnc3c2C(C)CC3O)CC1)c1ccc(Cl)cc1 (stereo not given) + Cc1nc(NC(=O)N2CCCC2C(N)=O)sc1-c1ccnc(C(C)(C)C(F)(F)F)c1"
  MEASUREMENT NAME: "viability, T/C"
  RESULT NUMBER: 88.8
- COMPOUND: "CNC(=O)c1ccc(N2C(=S)N(c3ccc(C#N)c(C(F)(F)F)c3)C(=O)C2(C)C)cc1F + CC(Nc1ccc2c(c1)OCCn1cc(N3C(=O)OCC3C(F)F)nc1-2)C(N)=O"
  MEASUREMENT NAME: "viability, T/C"
  RESULT NUMBER: 70.8
